experiment: qHTS assay to identify small molecule agonists of H2AX - cell viability counter screen (AID 1224847); details: CHO-K1 viability, CellTiter-Glo luminescence, 3 h; series mostly up to 154 µM; further: nearly all actives have a fitted effect of over 30% in size
Results filed as inconclusive are left out. Calls of active or inactive are those of the source. The call rests on the fitted dose curve.
Use one of these outcomes when replying: active, inactive

Completed entries (count: 8):
CCC[CH2][Sn]([CH2]CCC)([CH2]CCC)[O]C(=O)c1ccccc1	active
NC(=O)c1ccc(N)nc1	inactive
Oc1ccc(C2(c3ccc(O)cc3)CCCCC2)cc1	active
O=c1[nH]c2ccccc2n1C1CCN(CCCC(c2ccc(F)cc2)c2ccc(F)cc2)CC1	active
CCOC(=O)c1ccccc1S(=O)(=O)NC(=O)Nc1nc(Cl)cc(OC)n1	inactive
CN(C)C(=S)S	inactive
CC1(c2ccc(Oc3ccccc3)cc2)OC(=O)N(Nc2ccccc2)C1=O (centres undefined)	active
CC(C)(C)c1cc([N+](=O)[O-])cc(C(C)(C)C)c1O	active

Entry `CN(C)S(=O)(=O)N(SC(F)(Cl)Cl)c1ccccc1` : call = ?
active

Hi, sorry to bother you, what did the test record for CC(O)C#N (centres undefined) ?
inactive

Hello, I am checking results. What call was entered for COc1ccc(OC)c(CC(C)N)c1 (centres undefined) ?
inactive

What call does the record list for `CC(=O)[O-].CC(=O)[O-].[Hg+2]` ?
active

Given `Nc1c(Oc2ccccc2)cc(O)c2c1C(=O)c1ccccc1C2=O` , state the outcome it received in this test.
inactive

----------
assay: qHTS assay to identify small molecule agonists of the constitutive androstane receptor (CAR) signaling pathway - cell viability counter screen (AID 1224836); details: HepG2-CYP2B6-hCAR viability, CellTiter-Fluor, 23 h, PK11195 added to every well; series mostly up to 92.4 µM; further: nearly all actives have a fitted effect of over 45% in size; further: potency means the concentration at half of the fitted maximal effect
Results filed as inconclusive are left out. Calls of active or inactive are those of the source. Calls follow the shape of the dose curve; as a rule, active = well fitted cell-killing curve with a large enough effect in the repeat runs; inconclusive = weak or mixed curves, or effect the other way; inactive = flat fitted curve, though single readings scatter.
parameter: Potency

Observe how each entry below is paired with its result.
O=[N+]([O-])c1cc(Cl)ccc1Cl	inactive
CCOC(=O)OC1=C(c2cc(C)ccc2C)C(=O)NC12CCC(OC)CC2 (stereo not drawn)	inactive
O=[N+]([O-])c1cc([N+](=O)[O-])c2ccccc2c1	inactive
S=C(SSC(=S)N1CCCCC1)N1CCCCC1	0.841 µM (active)
O=C(CCCN1CCC2(CC1)C(=O)NCN2c1ccccc1)c1ccc(F)cc1	5.96 µM (active)

Return the recorded Potency value; entry: `COP(=O)(CCC(=O)NCO)OC`
inactive

# return recorded Potency for input `Cc1cc(C(F)(C(F)(F)F)C(F)(F)F)ccc1NC(=O)c1cccc(I)c1C(=O)NC(C)(C)CS(C)(=O)=O`
inactive

# return recorded Potency for entry `Oc1ccc(I)cc1`
inactive

Give me measured Potency, please, for this compound: `Cc1ccc(CCl)cc1`
inactive

Given the compound `CCC[CH2][Sn]([CH2]CCC)([CH2]CCC)[O]C(=O)c1ccccc1` , write its reported Potency.
0.77 µM (active)

Provide only the value of recorded Potency for `Cc1ccc(OP(=O)(Oc2ccccc2)Oc2ccccc2)cc1`
inactive

----------
test: A CellTox Green Cytotoxicity Assay to monitor cytotoxicity in HepG2 cells - 16 hour (AID 1224876); conditions: CellTox Green fluorescence; series mostly up to 76.8 µM; further: nearly all actives have a fitted effect of over 45% in size
Inconclusive results are not listed. Active and inactive are the calls of the source. The call rests on the fitted dose curve; in most records, active means well fitted activation curve with a large enough effect in the repeat runs; inconclusive means weak or mixed curves; inactive means flat fitted curve, though single readings scatter.
// one of active, inactive, no free text

Example entries and their recorded answers appear below.
CC1(C)C(/C=C(\Cl)C(F)(F)F)C1C(=O)OC(C#N)c1cccc(Oc2ccccc2)c1 (configuration not stated)	inactive
CN(C)c1ccc(N=Nc2ccccc2)cc1	inactive
CCCCCCCCCCCCCCC(Br)C(=O)O (configuration not stated)	inactive
COCC(=O)N(c1c(C)cccc1C)[C@H](C)C(=O)OC	inactive

Write down the call the test reported for this molecule. Item: CC(C)(COCC1CO1)COCC1CO1 (configuration not stated)
inactive

How was `C[C@H]1O[C@@H](O[C@H]2[C@@H](O)C[C@H](O[C@H]3[C@@H](O)C[C@H](O[C@H]4CC[C@@]5(C)[C@H](CC[C@@H]6[C@@H]5CC[C@]5(C)[C@@H](C7=CC(=O)OC7)CC[C@]65O)C4)O[C@@H]3C)O[C@@H]2C)C[C@H](O)[C@@H]1O` classified in this test?
inactive

Record lookup: outcome of this test for `CC(C)OC(=S)S` ?
inactive

Each molecule tested received a call. Report the one for `Fc1cccc(Cl)c1CCl` .
inactive
